Biological target: AKR1C3 (Homo sapiens (Human))
Sequence (P42330 whole entry): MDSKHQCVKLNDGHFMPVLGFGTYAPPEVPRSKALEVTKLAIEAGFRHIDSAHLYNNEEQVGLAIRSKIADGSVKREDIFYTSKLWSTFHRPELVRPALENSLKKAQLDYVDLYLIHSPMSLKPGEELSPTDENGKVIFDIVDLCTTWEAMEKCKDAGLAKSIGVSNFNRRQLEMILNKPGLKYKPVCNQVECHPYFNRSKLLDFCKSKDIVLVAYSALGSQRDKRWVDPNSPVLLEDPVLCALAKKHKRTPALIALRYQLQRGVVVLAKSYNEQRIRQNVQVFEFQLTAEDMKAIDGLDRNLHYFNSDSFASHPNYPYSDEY
Assay: AKR enzyme inhibition assay, NADP+ dependent oxidation of S-tetralol, AKR1C3
Type: biochemical
Conditions: read-out: IC50 AKR1C3
This listing pairs molecules with measured IC50.
The reply should be a number in nM, with the unit left off.

> print(dat)
                                   molecule                  tested.target  attribute.measured  obs.value
1  Cc1ccc(CNC(=O)c2cc(/C=C/C(=O)O)cc(-c3ccc4nccnc4c3)c2)cc1 [Compound A1-q]  AKR1C3 (Homo sapiens (Human))                IC50         94

So what IC50 did Cc1ccc(CNC(=O)c2cc(/C=C/C(=O)O)cc(-c3ccc(Br)cc3)c2)cc1 [Compound A1-b] get with AKR1C3 (Homo sapiens (Human))?
90

AKR1C3 (Homo sapiens (Human)) / IC50 / C/C=C/Cc1cc(/C=C/C(=O)O)cc(C(=O)NCc2ccc(C)cc2)c1 [Compound A1-z] : value?
110

# returns recorded IC50 (system: AKR1C3 (Homo sapiens (Human))) for Cc1ccc(CNC(=O)c2cc(/C=C/C(=O)O)cc(-c3ccc4ccccc4c3)c2)cc1 [Compound A1-o]
100

Request body: readout IC50, system AKR1C3 (Homo sapiens (Human)), query Cc1ccc(CNC(=O)c2cc(/C=C/C(=O)O)cc(-c3ccc4c(c3)OCO4)c2)cc1 [Compound A1-t] . Return the value.
110

# returns recorded IC50 (system: AKR1C3 (Homo sapiens (Human))) for Cc1ccc(CNC(=O)c2cc(/C=C/C(=O)O)cc(-c3ccc(F)cc3F)c2)cc1 [Compound A1-g]
130

----------
Target: AKR1C1 (Homo sapiens (Human))
Sequence (Q04828 whole entry): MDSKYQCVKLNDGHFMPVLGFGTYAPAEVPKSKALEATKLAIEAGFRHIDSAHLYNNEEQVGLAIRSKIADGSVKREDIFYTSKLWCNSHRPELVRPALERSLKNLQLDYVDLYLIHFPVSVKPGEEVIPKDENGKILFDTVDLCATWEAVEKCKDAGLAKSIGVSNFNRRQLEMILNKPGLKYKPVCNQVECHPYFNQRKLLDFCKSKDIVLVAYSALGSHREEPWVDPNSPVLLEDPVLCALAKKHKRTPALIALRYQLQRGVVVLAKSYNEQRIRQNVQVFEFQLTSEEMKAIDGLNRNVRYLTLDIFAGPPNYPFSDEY
Experiment: AKR enzyme inhibition assay, NADP+ dependent oxidation of S-tetralol, AKR1C1
Conditions: Table 2; recombinant enzyme, S-tetralol at Km; read-out: IC50 ± SD AKR1C1
pIC50: −log10 of the molar value.
Measured pIC50 of individual entries

Recorded results for 6 compounds are shown here.
> print(dat)
                           substance.smiles  attribute.measured  obs.value
1  Cc1ccc(CNC(=O)c2cc(/C=C/C(=O)O)cc(-c3ccc4c(c3)OCCO4)c2)cc1               pIC50     < 4.00
2  Cc1ccc(CNC(=O)c2cc(/C=C/C(=O)O)cc(-c3cccc(F)c3)c2)cc1               pIC50     < 4.00
3  Cc1ccc(CNC(=O)c2cc(/C=C/C(=O)O)cc(-c3ccccc3)c2)cc1               pIC50     < 4.00
4  Cc1ccc(CNC(=O)c2cc(/C=C/C(=O)O)cc(-c3ccccc3F)c2)cc1               pIC50     < 4.00
5  C/C=C/Cc1cc(/C=C/C(=O)O)cc(C(=O)NCc2ccc(C)cc2)c1               pIC50     < 4.00
6  Cc1ccc(CNC(=O)c2cc(/C=C/C(=O)O)cc(-c3ccc4ncnn4c3)c2)cc1               pIC50     < 4.00

# query: pIC50 of entry `Cc1ccc(CNC(=O)c2cc(/C=C/C(=O)O)cc(-c3ccc4c(c3)OCO4)c2)cc1`
< 4.00

Consider the compound shown here: `Cc1ccc(CNC(=O)c2cc(/C=C/C(=O)O)cc(-c3ccc(Cl)cc3)c2)cc1` What is its recorded pIC50?
< 4.00

May I ask what pIC50 has been recorded for `Cc1ccc(CNC(=O)c2cc(/C=C/C(=O)O)cc(-c3ccc(F)cc3)c2)cc1` ?
< 4.00
